These data points were gathered from paper PMC11266932.

Test: Clinical trial: plasma concentration and AUC of cinnamic acid derivatives after ingestion of BGP alone or BGP plus herbal extract mixture
Type: in vivo
Conditions: both sexes, human, oral; humans, BGP and herbal extracts co-administered, plasma 0–24 h, after enzymatic deconjugation, mean ± SD, n = 6; read-out: AUC
quantity name: AUC (ng·h/mL)

[P] CC(C)=CCc1cc(/C=C/C(=O)O)ccc1O
[Q] CC(C)=CCc1cc(C=CC(=O)O)cc(O)c1O [3,4‐dihydroxy‐5‐prenylcinnamic acid]
Just tell me: smaller AUC value, P or Q ? Returns: label corresponding to the selected item.
Q
(Q: 34.5 ng·h/mL, P: 446 ng·h/mL)

###

Target: MDR1 (P-gp) (Homo sapiens)
Construct: host or cells: MDCK II (Madin-Darby canine kidney) cells overexpressing MDR1
Sequence (P08183 whole entry): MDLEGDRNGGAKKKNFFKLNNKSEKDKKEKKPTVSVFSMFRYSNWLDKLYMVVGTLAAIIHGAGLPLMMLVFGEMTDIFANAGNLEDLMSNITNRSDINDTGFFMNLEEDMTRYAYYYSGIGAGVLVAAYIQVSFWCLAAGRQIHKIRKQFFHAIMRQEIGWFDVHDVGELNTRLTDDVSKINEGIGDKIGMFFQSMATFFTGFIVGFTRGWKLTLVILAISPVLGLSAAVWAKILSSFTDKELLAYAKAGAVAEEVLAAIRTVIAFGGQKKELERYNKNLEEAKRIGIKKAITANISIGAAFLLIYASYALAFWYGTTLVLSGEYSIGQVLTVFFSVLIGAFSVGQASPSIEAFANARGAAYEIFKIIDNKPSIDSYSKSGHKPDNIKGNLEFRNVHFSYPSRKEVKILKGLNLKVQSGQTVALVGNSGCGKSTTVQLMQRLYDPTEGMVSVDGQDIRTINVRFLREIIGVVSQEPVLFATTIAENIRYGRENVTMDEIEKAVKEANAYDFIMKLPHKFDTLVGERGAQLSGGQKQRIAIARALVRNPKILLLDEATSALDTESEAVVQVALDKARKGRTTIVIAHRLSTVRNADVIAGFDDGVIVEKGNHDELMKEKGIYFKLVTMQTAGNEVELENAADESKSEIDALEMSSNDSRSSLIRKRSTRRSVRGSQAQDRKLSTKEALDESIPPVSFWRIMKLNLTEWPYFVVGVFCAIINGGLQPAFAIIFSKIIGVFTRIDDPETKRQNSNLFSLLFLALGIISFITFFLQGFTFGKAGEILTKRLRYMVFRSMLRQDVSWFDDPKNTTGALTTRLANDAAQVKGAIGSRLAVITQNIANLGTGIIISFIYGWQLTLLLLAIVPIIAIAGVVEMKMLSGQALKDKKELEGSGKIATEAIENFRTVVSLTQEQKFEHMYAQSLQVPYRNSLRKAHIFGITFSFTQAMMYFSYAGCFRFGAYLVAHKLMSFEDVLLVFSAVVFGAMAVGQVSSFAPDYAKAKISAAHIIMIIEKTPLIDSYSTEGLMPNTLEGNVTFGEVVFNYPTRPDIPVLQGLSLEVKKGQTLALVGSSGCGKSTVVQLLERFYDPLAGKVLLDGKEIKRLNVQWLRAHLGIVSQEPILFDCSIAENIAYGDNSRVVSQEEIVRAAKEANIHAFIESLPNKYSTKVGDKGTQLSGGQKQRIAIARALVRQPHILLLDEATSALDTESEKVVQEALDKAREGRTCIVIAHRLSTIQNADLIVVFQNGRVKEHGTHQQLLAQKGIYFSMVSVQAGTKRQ
Experiment: Bidirectional transport assay across MDCK II-MDR1 cell monolayer
Type: in vitro ADME
Settings: dog, MDCK-MDR1, pH 7.4; 10 μM, 120 min, mean ± SE, n = 2
Experimental: The Madin‐Darby canine kidney (MDCK II) cell line and MDCK II cells overexpressing multidrug resistance 1 (MDR1) or breast cancer resistance protein (BCRP) were purchased from the Netherlands Cancer Institute (Amsterdam, Netherlands) and SOLVO Biotechnology (Szeged, Hungary), respectively. […] The in vitro samples were analyzed using HPLC (LC‐20A, Shimadzu, Kyoto, Japan) with a reversed‐phase column (Inertsil ODS‐3, 2.1 × 33 mm, ID. 3 μm, GL Sciences, Tokyo, Japan) held at 40°C. […]
quantity name: Papp B→A at 120 min, 10 μM (×10⁻⁶ cm/s)
Give the value, in units of ×10⁻⁶ cm/s, as a plain number.

Which Papp B→A at 120 min, 10 μM reading was recorded for the compound CC(C)=CCc1cc(/C=C/C(=O)O)ccc1O [drupanin] ?
11.2

###

Assay: Animal study: plasma concentration and AUC of cinnamic acid derivatives after intragastric BGP with or without each herbal extract
Type: in vivo, Wistar/ST rats
Details: male, Wistar/ST, rat, plasma, po, rats, BGP 75 mg/kg co-administered with gotu kola extract 250 mg/kg, intragastric, 0–24 h, mean ± SD, n = 8; read-out: AUC
quantity name: AUC (ng·h/mL)
Give the value, in units of ng·h/mL, as a plain number.

Which AUC reading was recorded for the molecule CC(C)=CCc1cc(/C=C/C(=O)O)ccc1O ?
629

###

Assay: Bidirectional transport assay across parent MDCK II cell monolayer
Assay type: in vitro ADME, canine
Settings: dog, MDCK-MDR1, pH 7.4; 10 μM, 120 min, parent cells of the MDR1 experiment (Table 2), mean ± SE, n = 2
quantity name: Papp A→B at 120 min, 10 μM (×10⁻⁶ cm/s)
Give the value, in units of ×10⁻⁶ cm/s, as a plain number.

Which Papp A→B at 120 min, 10 μM reading was recorded for the compound CC(C)=CCc1cc(/C=C/C(=O)O)ccc1O [drupanin] ?
11.1

###

Molecular target: BCRP (Homo sapiens)
Construct: host or cells: MDCK II (Madin-Darby canine kidney) cells overexpressing BCRP
Sequence (Q9UNQ0 whole entry): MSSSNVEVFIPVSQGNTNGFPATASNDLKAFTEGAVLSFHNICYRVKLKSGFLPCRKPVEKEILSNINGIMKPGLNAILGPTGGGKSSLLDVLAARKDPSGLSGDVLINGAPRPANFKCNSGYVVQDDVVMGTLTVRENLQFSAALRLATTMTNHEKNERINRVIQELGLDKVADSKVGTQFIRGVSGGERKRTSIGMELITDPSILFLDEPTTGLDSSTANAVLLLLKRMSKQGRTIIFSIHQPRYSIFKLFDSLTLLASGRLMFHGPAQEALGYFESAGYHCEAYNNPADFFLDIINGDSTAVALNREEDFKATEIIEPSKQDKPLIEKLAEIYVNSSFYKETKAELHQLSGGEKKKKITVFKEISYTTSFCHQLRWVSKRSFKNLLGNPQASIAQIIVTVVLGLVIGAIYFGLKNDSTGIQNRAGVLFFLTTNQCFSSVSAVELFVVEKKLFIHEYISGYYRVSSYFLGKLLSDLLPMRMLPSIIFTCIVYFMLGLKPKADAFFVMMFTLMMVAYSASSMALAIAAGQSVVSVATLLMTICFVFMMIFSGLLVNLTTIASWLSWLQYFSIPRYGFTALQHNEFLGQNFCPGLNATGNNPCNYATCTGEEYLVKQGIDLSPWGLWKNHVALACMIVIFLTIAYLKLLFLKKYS
Experiment: Bidirectional transport assay across MDCK II-BCRP cell monolayer
Type: in vitro ADME
Settings: dog, pH 7.4; read-out: Flux ratio (MDCK II‐BCRP) (efflux ratio, ER)
quantity name: efflux ratio at 120 min, 10 μM
Please reply with the number alone, leaving off any unit.

Which efflux ratio at 120 min, 10 μM reading was recorded for the compound CC(C)=CCc1cc(/C=C/C(=O)O)ccc1O ?
15.7
